Each entry below lists one item and its recorded pKd value.
molecular target: S100B (Homo sapiens, UniProt P04271); construct: made in house; host or cells: Escherichia coli BL21(DE3); assay: Pull-down assay with immobilized protein and LSM libraries; assay type: binding; details: H14 library; 1:1 binding assumed; read-out: Surface mapping KD (apparent)
Sequence (P04271 whole entry): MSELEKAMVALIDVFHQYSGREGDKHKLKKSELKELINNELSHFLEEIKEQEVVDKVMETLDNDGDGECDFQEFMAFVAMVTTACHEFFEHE
// returns pKd (minus log10 of molar concentration), number only

Solved entries:
q: For the compound `NC(=O)[C@H]1CCCC[C@@H]1NC(=O)C[C@H](Cc1ccccc1)NC(=O)[C@H]1CCCC[C@@H]1NC(=O)[C@H]1CCCC[C@@H]1NC(=O)C[C@H](CC(=O)O)NC(=O)[C@H]1CCCC[C@@H]1N` , what pKd is on record?
a: 3.47

q: Let us now turn to `C[C@@H](CC(=O)N[C@H]1CCCC[C@@H]1C(=O)N[C@H]1CCCC[C@@H]1C(=O)N[C@H](CC(=O)N[C@H]1CCCC[C@@H]1C(N)=O)Cc1ccccc1)NC(=O)[C@H]1CCCC[C@@H]1N`
a: 4.35

q: Another compound: `CSCC[C@@H](CC(=O)N[C@H]1CCCC[C@@H]1C(N)=O)NC(=O)[C@H]1CCCC[C@@H]1NC(=O)[C@H]1CCCC[C@@H]1NC(=O)C[C@H](Cc1ccc(O)cc1)NC(=O)[C@H]1CCCC[C@@H]1N`
a: 3.75

q: Also, `CC(C)C[C@@H](CC(=O)N[C@H]1CCCC[C@@H]1C(=O)N[C@H]1CCCC[C@@H]1C(=O)N[C@@H](CO)CC(=O)N[C@H]1CCCC[C@@H]1C(N)=O)NC(=O)[C@H]1CCCC[C@@H]1N` please.
a: 3.42

q: Also check `N=C(N)NCCC[C@@H](CC(=O)N[C@H]1CCCC[C@@H]1C(=O)N[C@H]1CCCC[C@@H]1C(=O)N[C@H](CC(=O)N[C@H]1CCCC[C@@H]1C(N)=O)Cc1ccccc1)NC(=O)[C@H]1CCCC[C@@H]1N`
a: 4.80

New cases:
q: So what does the record say about pKd for `CC[C@H](C)[C@@H](CC(=O)N[C@H]1CCCC[C@@H]1C(=O)N[C@H]1CCCC[C@@H]1C(=O)N[C@H](CC(=O)N[C@H]1CCCC[C@@H]1C(N)=O)CC(C)C)NC(=O)[C@H]1CCCC[C@@H]1N` ?
a: 4.72

q: Now consider `CC(C)[C@@H](CC(=O)N[C@H]1CCCC[C@@H]1C(N)=O)NC(=O)[C@H]1CCCC[C@@H]1NC(=O)[C@H]1CCCC[C@@H]1NC(=O)C[C@H](C)NC(=O)[C@H]1CCCC[C@@H]1N` and answer again.
a: 3.82

q: // next record `CSCC[C@@H](CC(=O)N[C@H]1CCCC[C@@H]1C(=O)N[C@H]1CCCC[C@@H]1C(=O)N[C@H](CC(=O)N[C@H]1CCCC[C@@H]1C(N)=O)[C@@H](C)O)NC(=O)[C@H]1CCCC[C@@H]1N`
a: 3.32

q: What do you have for `NC(=O)C[C@@H](CC(=O)N[C@H]1CCCC[C@@H]1C(=O)N[C@H]1CCCC[C@@H]1C(=O)N[C@H](CC(=O)N[C@H]1CCCC[C@@H]1C(N)=O)Cc1c[nH]c2ccccc12)NC(=O)[C@H]1CCCC[C@@H]1N` ?
a: 4.01

q: Same question, `N=C(N)NCCC[C@@H](CC(=O)N[C@H]1CCCC[C@@H]1C(N)=O)NC(=O)[C@H]1CCCC[C@@H]1NC(=O)[C@H]1CCCC[C@@H]1NC(=O)C[C@H](Cc1ccccc1)NC(=O)[C@H]1CCCC[C@@H]1N` this time
a: 4.25

q: Now consider `CSCC[C@@H](CC(=O)N[C@H]1CCCC[C@@H]1C(=O)N[C@H]1CCCC[C@@H]1C(=O)N[C@@H](C)CC(=O)N[C@H]1CCCC[C@@H]1C(N)=O)NC(=O)[C@H]1CCCC[C@@H]1N` .
a: 3.42

q: Param item: `CSCC[C@@H](CC(=O)N[C@H]1CCCC[C@@H]1C(N)=O)NC(=O)[C@H]1CCCC[C@@H]1NC(=O)[C@H]1CCCC[C@@H]1NC(=O)C[C@H](Cc1ccccc1)NC(=O)[C@H]1CCCC[C@@H]1N`
a: 4.72
